system: CP238; test: qHTS profiling for inhibitors of Plasmodium falciparum proliferation (AID 504749); note: nearly all actives have a fitted effect of over 60% in size; note: potency is the fitted concentration of half-maximal effect; conditions: P. falciparum in erythrocytes, SYBR Green DNA, 72 h; series mostly up to 28.7 µM
Inconclusive results are not listed. Activity calls are given as the source filed them. Calls come from the whole dose curve; as a rule, active = well fitted inhibition curve with a large enough effect; inconclusive = small, poorly fitted or top-dose-only effect; inactive = flat fitted curve, though single readings scatter.
Property Label: Potency

-- ask Quick one: Potency of CO[C@H]1[C@@H](O)CC(OC2[C@@H](O)CC(OC3[C@@H](O)C[C@H](OC4CC[C@@]5(C)C(CCC6C5CC(O)[C@]5(C)[C@H](C7=CC(=O)OC7)CCC65O)C4)O[C@@H]3C)O[C@@H]2C)O[C@@H]1C (some centres undefined) ?
-- reply inactive

-- ask Quick one: Potency of Oc1cc[c]([Hg][Cl])cc1 ?
-- reply 10 µM (active)

-- ask Quick one: Potency of CCCCCCCCCC[N+](C)(C)CCCCCCCCCC ?
-- reply 5.62 µM (active)

-- ask Quick one: Potency of CCN1C[C@]2(COC)[C@H](O)C[C@H](OC)[C@]34C1C([C@H](OC)[C@H]23)[C@]1(OC(C)=O)C2[C@@H](OC(=O)c3ccccc3)C(O)(C[C@H]24)[C@@H](OC)[C@@H]1O ?
-- reply inactive
